We begin with a simple list: items and their reported Transient cell system EC50 (nM), mCRHR1; cAMP assay, transiently transfected CHO-K1 cells.
- systemName: T1, mouse CRH receptor 1 (mouse, UniProt P35347 24-415)
- T1 sequence (looked up): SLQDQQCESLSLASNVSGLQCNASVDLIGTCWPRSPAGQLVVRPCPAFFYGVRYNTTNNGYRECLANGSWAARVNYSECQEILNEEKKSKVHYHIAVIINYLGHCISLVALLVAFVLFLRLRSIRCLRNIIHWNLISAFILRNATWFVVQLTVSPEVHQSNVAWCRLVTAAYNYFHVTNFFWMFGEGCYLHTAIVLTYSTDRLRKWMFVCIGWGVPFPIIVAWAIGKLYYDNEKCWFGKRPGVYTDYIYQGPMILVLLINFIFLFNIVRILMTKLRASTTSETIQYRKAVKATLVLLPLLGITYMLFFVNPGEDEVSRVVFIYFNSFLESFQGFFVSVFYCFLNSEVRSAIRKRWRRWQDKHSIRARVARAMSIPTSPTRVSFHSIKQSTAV
- method: cell-based or functional assay
Non-standard residues stand in square brackets, D forms with d. No end group written: not given here. NMeI = CC[C@H](C)[C@H](NC)C(=O)O; Nle = CCCC[C@H](N)C(=O)O; lip = not defined here; Aib = CC(C)(N)C(=O)O
Answer in nM, number only, no unit symbol.

Data request: Fill in: Transient cell system EC50 (nM), mCRHR1; cAMP assay, transiently transfected CHO-K1 cells of [NMeI]VLSLDVPIGLLQILLEQARARAAREQATKNAEILAEV-NH2 (not fully specified (residue 30); printed as [MeI]VLSLDVPIGLLQILLEQARARAAREQAT[K*]NAEILAEV(NH_2); also: lipid and spacer on Lys30 not given here) [SEQ ID NO: 6, [MeI]VLSLDVPIGLLQILLEQARARAAREQAT[K*]NAEILAEV(NH2)] is ___
Data returned: 71

Data request: Param item = PVLSLDVPIGLLQILLSQARARAAREQAK[Aib]NAEI[Nle]AEV-NH2 (not fully specified (residue 29); printed as PVLSLDVPIGLLQILLSQARARAAREQA[K*][Aib]NAEI[Nle]AEV(NH_2); also: lipid and spacer on Lys29 not given here) [SEQ ID NO: 238, PVLSLDVPIGLLQILLSQARARAAREQA[K*][Aib]NAEI[Nle]AEV(NH2)] ; retrieve measured Transient cell system EC50 (nM), mCRHR1; cAMP assay, transiently transfected CHO-K1 cells.
Data returned: 323

// moving on: another record for Transient cell system EC50 (nM), mCRHR1; cAMP assay, transiently transfected CHO-K1 cells
Data request: Name the recorded Transient cell system EC50 (nM), mCRHR1; cAMP assay, transiently transfected CHO-K1 cells for IVLSLDVPIGLLQILLEQARARAAREQAK(lip)TNAEILAEV-NH2 (not fully specified; reading uncertain) [SEQ ID NO: 3 (Lipidated UCN2 with X^36 = E; X^40 = E) (reference 1)] .
Data returned: 44

Each recorded value in this set is attributed to patent EP4810052A2.
